System: MCF7
PROTOCOL DETAILS: NCI tumour cell line growth inhibition, 48 h
Calls of active or inactive are those of the source. No stated cut-off is given here; in the data, active = GI50 up to about 1.1 µM and inactive = higher.
Some compounds, each annotated with its measured GI50.

Example entries begin here.
{"COMPOUND": "COC(=O)C(C(=O)C(=O)Nc1c(C)cccc1C(C)(C)C)c1nc2ccc(Cl)cc2nc1O (stereo not given)", "GI50": "> 100 µM (inactive)"}
{"COMPOUND": "Cc1ccc(C(=O)/C=C2/Nc3ccccc3NC2=O)c(C)c1", "GI50": "13.3 µM (inactive)"}
{"COMPOUND": "CC(=O)OC(Cc1c(O)c2c(C)cccc2oc1=O)C(C)(C)O (stereo not given)", "GI50": "> 100 µM (inactive)"}
{"COMPOUND": "Cc1nc2sc3cccc(Cl)c3n2c(=O)c1/N=N/c1ccc(Cl)cc1", "GI50": "87.5 µM (inactive)"}

Query string: # input compound: N#Cc1nn(C2OC(COC(=O)c3ccccc3)C(OC(=O)c3ccccc3)C2OC(=O)c2ccccc2)c2nc[nH]c(=O)c12 (stereo not given) ; wanted: its GI50
Result string: 93.5 µM (inactive)

###

Test system: 786-0
PROTOCOL DETAILS: NCI tumour cell line growth inhibition, 48 h
Active and inactive are the calls of the source. Cut-off read from the data, not from the text of the source: active = GI50 up to about 1.1 µM and inactive = higher.
READOUT KIND: GI50

Example entries begin here.
{"MOLECULE": "CCOc1ccc2c(c1)/C(=C(\\C(Cl)=C(Cl)Cl)[N+](=O)[O-])N2", "GI50": "> 100 µM (inactive)"}
{"MOLECULE": "COc1ccc(NC(=S)N/N=C/c2cccc(C)n2)cc1", "GI50": "3.98 µM (inactive)"}
{"MOLECULE": "Cc1ccc(C2c3c(n(C)c(=O)n(C)c3=O)OC(N(C)C)(N(C)C)C2(F)F)cc1 (stereo not given)", "GI50": "> 100 µM (inactive)"}
{"MOLECULE": "N#CC(N)c1ccc(OCCCCCCCCCCOc2ccc(C(N)C#N)cc2)cc1 (stereo not given)", "GI50": "> 100 µM (inactive)"}

Let us move to another entry and its GI50.
Query string: # input molecule: COc1cc(CNC(=O)CCCCCCCCCCSC#N)ccc1O ; wanted: its GI50
Result string: 17.8 µM (inactive)

###

Test system: Hs-578T
PROTOCOL DETAILS: NCI tumour cell line growth inhibition, 48 h
Activity calls are given as the source filed them. Rule as the data show it: active = GI50 up to about 1.1 µM and inactive = higher.
READOUT KIND: GI50

Example entries begin here.
{"COMPOUND": "N#Cc1ccc(C(=O)/C=C/c2ccc(O)c(O)c2)cc1", "GI50": "24.4 µM (inactive)"}
{"COMPOUND": "COC(=O)C1=C(OC(=O)/C(=C/c2ccccc2)c2ccc(Cl)cc2Cl)C(C(=O)OC)[C@@]2(O)[C@@H](C(=O)OC)[C@H](C)C[C@@H]1[C@@H]2C(=O)OC (stereo partly specified)", "GI50": "> 100 µM (inactive)"}
{"COMPOUND": "N=c1c2c(ncn1N)Oc1c(c(-c3ccccc3)nn1-c1ccccc1)C2c1ccc(Cl)cc1 (stereo unspecified)", "GI50": "1.64 µM (inactive)"}
{"COMPOUND": "COc1c2ccsc2c(OC)c2ccsc12", "GI50": "71.4 µM (inactive)"}
{"COMPOUND": "NCC1OC(n2cnc3c(N)ncnc32)CC1O (stereo unspecified)", "GI50": "> 100 µM (inactive)"}

Let us move to another entry and its GI50.
Query string: # input compound: C#CC(O)Cc1ccc(OC)c2occc12 (stereo unspecified) ; wanted: its GI50
Result string: > 100 µM (inactive)

###

Tested on: CAKI-1
PROTOCOL DETAILS: NCI tumour cell line growth inhibition, 48 h
The source made the active and inactive calls. Rule as the data show it: active = GI50 up to about 1.1 µM and inactive = higher.
Some compounds, each annotated with its measured GI50.

Example entries begin here.
{"COMPOUND": "COC(=O)C1=C(OC(=O)/C(=C/c2ccccc2)c2ccc(Cl)cc2Cl)C(C(=O)OC)[C@@]2(O)[C@@H](C(=O)OC)[C@H](C)C[C@@H]1[C@@H]2C(=O)OC (stereo partly drawn)", "GI50": "> 100 µM (inactive)"}
{"COMPOUND": "O=C(Cc1ccccc1)NN1C(=O)C(Cl)C1c1ccc(Cl)cc1 (stereo not drawn)", "GI50": "> 100 µM (inactive)"}

Let us move to another entry and its GI50.
Query string: # input compound: CCc1cccc(CC)c1NC(=O)C(C#N)C1=C(Cl)C(=O)c2ccccc2C1=O (stereo not drawn) ; wanted: its GI50
Result string: 15.6 µM (inactive)
